Assay explanation: amyloid nucleation score (Sup35N fusion, yeast selection) (log enrichment); library NNK1; higher = more nucleation; inactive = no reads after selection;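 further: zero at mode of non-aggregating sequences after 7 days selection at 30°C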
The threshold is inclusive: amyloid nucleation score of exactly 0.2 counts as MET; values below receive NOT MET.

Use the examples below as a reference point.
          item_sequence    class
0       YFGDAGAFGFFSGLG  NOT MET
1  NVVHRLLWQSSVTSYIAVSY      MET
2        SKESKSSEARLLIR  NOT MET
3  TLSLNYRFNLKERFLVSGLI  NOT MET
4  YLVILKITGGSDVPTDQMVW  NOT MET
5  RFTGQWWYVFSLWAILSRIK      MET

Input line: Check if amyloid nucleation score >= 0.2 (inclusive). Item: YHKRVNFSVRAGCCC
Output line: MET

Input line: For this sequence, is measured amyloid nucleation score 0.2 or higher? TAIRWHFGNFVIDNIRNRGI
Output line: MET

Input line: Determine whether measured amyloid nucleation score meets or exceeds 0.2 for RCWGRAYMYRPCCISV
Output line: NOT MET

Input line: Evaluate FGFTGLTSW : amyloid nucleation score at minimum 0.2?
Output line: NOT MET

Input line: Answer whether amyloid nucleation score of CSGCYPRLCESMLNGNSGYV is greater than or equal to 0.2.
Output line: MET

Input line: Answer whether amyloid nucleation score of FQRTGQKMWNNKKCSGRQHD is greater than or equal to 0.2.
Output line: NOT MET

Input line: Check if amyloid nucleation score >= 0.2 (inclusive). Item: IETSKFRPINVKLVIYCCHG
Output line: MET

Input line: Record IQLILSSAEFFSLAGSREYR ; criterion: amyloid nucleation score no lower than 0.2. Met?
Output line: MET

Input line: Can TSPPSKIAVRCGWDSMSLR be said to have amyloid nucleation score at or above 0.2?
Output line: MET

====

Assay explanation: amyloid nucleation score (Sup35N fusion, yeast selection) (log enrichment); library NNK1; higher = more nucleation; inactive = no reads after selection
Recorded endpoint: amyloid nucleation score
Numbers only.

Example entries begin here.
>>> df
              substance         recorded_endpoint  observed_measurement
0     RQDAVNNNTCNSISFNP  amyloid nucleation score                 0.048
1               NLSSYGR  amyloid nucleation score                 0.798
2  VFRTLHSPSVSSGRWSSELS  amyloid nucleation score                -0.475
3        LFTNMYSRVLTFLM  amyloid nucleation score                -0.441

Batch of 3 substances: report amyloid nucleation score for each.
1. SLYTKLAVPLGKWRIGYRLT
2. MQINGRESDCMWNNMNARDW
3. LQVKNVYGACFVCAMMVAWE

Output line:
1. 0.46
2. -0.108
3. 5.18

Please supply amyloid nucleation score for each of the following items, keeping them in order.
1. LLRSILTMAY
2. VELLIEFLSRLGWIGCRHVL

Output line:
[0.605, 0.08]

====

Assay explanation: amyloid nucleation score (Sup35N fusion, yeast selection) (log enrichment); library NNK3; higher = more nucleation; inactive = no reads after selection
Recorded endpoint: amyloid nucleation score

Completed entries (count: 6):
In [3]: df
Out[3]:
              substance         recorded_endpoint  observed_measurement
0                ARVVVG  amyloid nucleation score              inactive
1  VTILMLNHYSYTSLLMRKFN  amyloid nucleation score                 0.704
2          RATKVDVRGGVA  amyloid nucleation score                -0.911
3  GPLRVPVMMGCWRRIDRMPW  amyloid nucleation score              inactive
4  NVTDVMRNISMTQLMFYLFA  amyloid nucleation score                  1.74
5  LGVCVWQCLGMSIVNALKRL  amyloid nucleation score              inactive

Could you tell me amyloid nucleation score for each of these substances? They are listed below.
1. RTGPTRALRVLHLDAMDALV
2. SAGYGLPPPVEYFNWPFSC
3. SGIYTMVWAFGFDVLYLLVS
4. DSSRTVGCLSCFYFAIGFWI
5. LWPWFNCLRGRCGRIVCGWR
6. TSLFGIPQCRFRVRSWNDVV
7. FFLIEQFYTYWMGGIMMIQR

Output line:
1: inactive; 2: -0.394; 3: inactive; 4: 0.681; 5: inactive; 6: inactive; 7: inactive
